Reported AC50 by item:
# Test system: CFTR-Y122X
# METHOD: CFTR-Y122X assay (dual reporter isogenic Hek293 cell lines, Renilla luminescence readthrough)
# Format: cell-based
# CONDITION: Homo sapiens, HEK293, 24 h, nonsense mutation suppression; 24 h incubation; tested up to 100 μM
Field: numeric (µM). Do not append units.

# COMPOUND, AC50, µM
measured = [
    ("Cc1scc2c(=O)c3c(=O)n(-c4ccccc4)c(C4CCC4)nc3n(C)c12 [Example 2.16]", 4.6),
    ("Cc1cc2c(=O)c3c(=O)n(-c4ccccc4)c(C4CCC4)nc3[nH]c2s1 [Example 2.1]", 12),
]

Qu. Please indicate AC50 recorded for CC1CCc2c([nH]c3nc(C(C)C)n(-c4ccccc4)c(=O)c3c2=O)C1 (stereo not drawn) [Example 3.6]
Ans. 27

Qu. Note AC50 for the compound shown: Cn1c2nc(C3CCC3)n(-c3ccccc3)c(=O)c2c(=O)c2ccsc21 [Example 2.10]
Ans. 2

Qu. Report AC50 for Cc1csc2c(=O)c3c(=O)n(-c4ccccc4)c(C(C)C)nc3n(C)c12 [Example 2.22]
Ans. 16

Qu. Output measured AC50 for this item: CC(C)c1nc2c(c(=O)c3sc(Cl)cc3n2C)c(=O)n1-c1ccccc1 [Example 2.20]
Ans. 19

====

# Tested on: alpha-L-Iduronidase W402X in Hurler patient derived fibroblast cells
# METHOD: Hurler patient derived fibroblast cell cultures, restored alpha-L-iduronidase activity (W402X readthrough)
# Assay type: cell-based, human
# CONDITION: Homo sapiens, Fibroblast, 192 h, 14 mM paromomycin = 100% control, 8 days incubation, highest concentration 20 uM, read-out: Amax
ATTRIBUTE MEASURED: Emax (%)
Return type: number; implicit unit %.

Known Emax results, listed for orientation:
# COMPOUND, ATTRIBUTE MEASURED, OBS VALUE
data = [
    ("Cc1cc2c(s1)c(=O)c1c(=O)n(-c3ccccc3)c(C(C)C)nc1n2C", "Emax", 39),
    ("CC(C)c1nc2[nH]c3c(c(=O)c2c(=O)n1-c1ccccc1)CCCCC3", "Emax", 9),
    ("CC1CCc2c(n(C)c3nc(C(C)C)n(-c4ccccc4)c(=O)c3c2=O)C1 (centres unmarked)", "Emax", 15),
]

Qu. Give Emax for the following compound: Cc1cc2c(=O)c3c(=O)n(-c4ccccc4)c(C4CCC4)nc3n(C)c2s1
Ans. 96

====

# Tested on: alpha-L-Iduronidase W402X in Hurler patient derived fibroblast cells
# METHOD: Hurler patient derived fibroblast cell cultures, restored alpha-L-iduronidase activity (W402X readthrough)
# Type: cell-based, human
# CONDITION: Homo sapiens, Fibroblast, 192 h, 14 mM paromomycin = 100% control, 8 days incubation, highest concentration 20 uM, read-out: Amax
Overview of reported Emax across a group of compounds:
Reply with just the number (in %).

Here are 5 compounds together with their reported answers.
# COMPOUND, Emax (%)
data = [
    ("CCc1cc2c(=O)c3c(=O)n(-c4ccccc4)c(C4CCC4)nc3n(C)c2s1", 66),
    ("CC(C)c1nc2c(c(=O)c3c(n2C)CCC3)c(=O)n1-c1ccccc1", 8),
    ("Cn1c2nc(C3CCC3)n(-c3ccccc3)c(=O)c2c(=O)c2ccsc21", 167),
    ("CC1CCc2c([nH]c3nc(C(C)C)n(-c4ccccc4)c(=O)c3c2=O)C1 (stereo not shown)", 10),
    ("CC(C)c1nc2c(c(=O)c3c(n2C)CCCC3)c(=O)n1-c1ccccc1", 17),
]

Qu. Quickly give me recorded Emax for Cn1c2cc(Cl)sc2c(=O)c2c(=O)n(-c3ccccc3)c(C3CCC3)nc21
Ans. 128

Qu. Consider the compound Cc1c(C)n(C)c2nc(C3CCC3)n(-c3ccccc3)c(=O)c2c1=O . State its measured Emax.
Ans. 34

Qu. Give reported Emax value for Cc1[nH]c2nc(C3CCC3)n(-c3ccccc3)c(=O)c2c(=O)c1C
Ans. 183

====

# Test system: alpha-L-Iduronidase W402X in Hurler patient derived fibroblast cells
# METHOD: Hurler patient derived fibroblast cell cultures, restored alpha-L-iduronidase activity (W402X readthrough)
# Assay type: cell-based, human
# CONDITION: Homo sapiens, Fibroblast, 192 h, 14 mM paromomycin = 100% control, 8 days incubation, highest concentration 20 uM, read-out: Amax
Emax by entry:
Answer format: numeric, % implied, no suffix.

Examples from the recorded data:
# MOLECULE, Emax / %
rows = [
    ("Cc1[nH]c2nc(C(C)C)n(-c3ccccc3)c(=O)c2c(=O)c1C [Example 3.5]", 9),
    ("Cc1cc2c(=O)c3c(=O)n(-c4ccccc4)c(C4CCC4)nc3[nH]c2s1 [Example 2.1]", 42),
]

Qu. Report measured Emax; entry is CC(C)c1nc2c(c(=O)c3sccc3n2C)c(=O)n1-c1ccccc1 [Example 1.1]
Ans. 25

Qu. Input Cn1c2ccsc2c(=O)c2c(=O)n(-c3ccccc3)c(C3CCC3)nc21 [Example 2.11] , output reported Emax.
Ans. 152

Qu. Consider the molecule CC(C)c1nc2c(c(=O)c3sc(Cl)cc3n2C)c(=O)n1-c1ccccc1 [Example 2.20] and give its recorded Emax.
Ans. 7

Qu. Answer with the recorded Emax for the molecule listed here: CC(C)c1nc2c(c(=O)c3cc(Cl)sc3n2C)c(=O)n1-c1ccccc1 [Example 2.19]
Ans. 16

Qu. Output Emax of Cc1cc2[nH]c3nc(C(C)C)n(-c4ccccc4)c(=O)c3c(=O)c2s1 [Example 2.8]
Ans. 65

Qu. Look up Emax of Cc1c(C)n(C)c2nc(C(C)C)n(-c3ccccc3)c(=O)c2c1=O [Example 3.7] and report it.
Ans. 14
